# assay_target: human EYA2(ED) (Homo sapiens)
# Sequence (O00167 267-538 limits assumed): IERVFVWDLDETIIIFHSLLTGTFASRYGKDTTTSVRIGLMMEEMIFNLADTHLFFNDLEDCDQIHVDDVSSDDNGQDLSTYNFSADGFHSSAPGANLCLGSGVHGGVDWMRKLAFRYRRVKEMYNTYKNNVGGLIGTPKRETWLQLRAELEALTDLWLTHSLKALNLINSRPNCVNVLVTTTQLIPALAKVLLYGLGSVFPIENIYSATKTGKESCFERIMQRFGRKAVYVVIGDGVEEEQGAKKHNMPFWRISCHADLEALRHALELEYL

# structure_smiles, IC50 [µM]
data = [
    ("CCc1oc2ccccc2c1C(=O)c1cc(Br)c(O)c(Br)c1", 10.3),
]

* * *

# assay_target: Eya3(ED) (Mus musculus, UniProt P97480)
# Sequence (P97480 223-510): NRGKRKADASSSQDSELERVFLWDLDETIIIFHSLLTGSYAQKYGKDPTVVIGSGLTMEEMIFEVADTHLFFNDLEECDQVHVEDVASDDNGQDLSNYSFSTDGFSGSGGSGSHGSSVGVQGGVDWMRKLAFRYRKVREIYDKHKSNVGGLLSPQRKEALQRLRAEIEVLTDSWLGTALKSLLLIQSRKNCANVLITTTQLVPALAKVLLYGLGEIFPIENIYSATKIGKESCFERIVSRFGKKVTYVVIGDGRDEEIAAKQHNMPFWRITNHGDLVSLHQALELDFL
IC50 values, listed per item
measurement_type: IC50

# compound, assay_target, measurement_type, observed_value
rows = [
    ("CC(=O)c1cc(Br)c(O)c(Br)c1O [Compound 1i]", "Eya3(ED) (Mus musculus, UniProt P97480)", "IC50", "> 150 µM"),
    ("CCc1oc2ccccc2c1C(=O)c1ccc(O)cc1 [Compound 1a, Benzarone]", "Eya3(ED) (Mus musculus, UniProt P97480)", "IC50", "19.2 µM"),
    ("O=C(c1ccc(F)cc1)c1coc2ccc(O)cc12 [Compound 1d]", "Eya3(ED) (Mus musculus, UniProt P97480)", "IC50", "> 150 µM"),
    ("CCCCC(=O)c1ccc(O)cc1 [Compound 1j]", "Eya3(ED) (Mus musculus, UniProt P97480)", "IC50", "> 150 µM"),
    ("CC(=O)c1c(C)oc2ccc(O)cc12 [Compound 1g]", "Eya3(ED) (Mus musculus, UniProt P97480)", "IC50", "> 150 µM"),
]
